- targetOrTestSystem: ACE (Oryctolagus cuniculus)
- Sequence (P12822 34-1310): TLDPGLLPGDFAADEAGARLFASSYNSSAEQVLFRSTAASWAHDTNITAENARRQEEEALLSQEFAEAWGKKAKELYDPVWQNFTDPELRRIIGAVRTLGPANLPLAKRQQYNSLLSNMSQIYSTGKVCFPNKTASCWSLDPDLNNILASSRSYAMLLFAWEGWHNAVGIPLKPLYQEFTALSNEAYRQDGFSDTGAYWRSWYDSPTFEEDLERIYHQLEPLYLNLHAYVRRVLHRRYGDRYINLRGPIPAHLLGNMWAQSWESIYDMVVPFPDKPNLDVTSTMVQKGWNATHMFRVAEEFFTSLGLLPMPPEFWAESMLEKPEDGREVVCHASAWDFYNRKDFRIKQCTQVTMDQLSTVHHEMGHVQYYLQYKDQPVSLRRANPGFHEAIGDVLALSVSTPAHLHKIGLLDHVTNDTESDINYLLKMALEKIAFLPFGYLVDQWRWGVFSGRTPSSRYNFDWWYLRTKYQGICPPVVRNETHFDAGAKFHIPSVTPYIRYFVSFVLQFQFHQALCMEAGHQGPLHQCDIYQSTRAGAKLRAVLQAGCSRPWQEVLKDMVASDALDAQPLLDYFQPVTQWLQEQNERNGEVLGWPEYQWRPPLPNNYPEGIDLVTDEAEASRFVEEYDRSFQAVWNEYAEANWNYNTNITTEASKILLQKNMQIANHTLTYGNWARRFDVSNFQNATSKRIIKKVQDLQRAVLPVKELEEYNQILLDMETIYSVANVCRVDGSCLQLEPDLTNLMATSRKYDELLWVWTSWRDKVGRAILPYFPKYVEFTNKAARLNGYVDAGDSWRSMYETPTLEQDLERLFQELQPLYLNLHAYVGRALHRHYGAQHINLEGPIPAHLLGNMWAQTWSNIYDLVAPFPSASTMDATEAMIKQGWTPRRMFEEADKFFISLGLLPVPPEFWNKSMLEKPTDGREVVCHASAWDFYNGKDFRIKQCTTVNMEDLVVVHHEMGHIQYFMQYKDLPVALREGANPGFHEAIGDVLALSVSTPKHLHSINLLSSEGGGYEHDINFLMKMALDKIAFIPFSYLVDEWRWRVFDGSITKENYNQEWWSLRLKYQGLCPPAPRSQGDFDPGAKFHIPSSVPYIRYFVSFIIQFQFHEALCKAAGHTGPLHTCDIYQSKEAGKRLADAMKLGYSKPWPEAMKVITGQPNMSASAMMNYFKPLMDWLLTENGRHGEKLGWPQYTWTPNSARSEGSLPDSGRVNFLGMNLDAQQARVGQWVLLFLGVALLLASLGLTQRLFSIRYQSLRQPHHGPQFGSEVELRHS
Where a name gives a salt, the structure may show the parent alone.
recordedEndpoint: IC50 (nM)

* O=C(O)[C@H](Cc1ccccc1)NC(=O)[C@H](Cc1ccccc1)NP(=O)(O)CCCCc1ccccc1 [Compound R-1, dilithium salt] | 20
